The following compounds are listed with their measured equianalgesic calculated dose values.
conditions: in comparison to a 15 mg dose of hydrocodone
Form entry: value (mg) — number only.

Compound: COc1ccc2c3c1O[C@H]1[C@@H](O)C=C[C@H]4[C@@H](C2)N(C)CC[C@@]341
Readout name: equianalgesic calculated dose
Assay value: 90.0

Compound: CN1CC[C@]23CCCC[C@H]2[C@H]1Cc1ccc(O)cc13
Readout name: equianalgesic calculated dose
Assay value: 1.8

Compound: COc1ccc2c3c1O[C@H]1C(=O)CC[C@@]4(O)[C@@H](C2)N(C)CC[C@]314
Readout name: equianalgesic calculated dose
Assay value: 13.5

Compound: COc1ccc2c3c1OC1C(=O)CC[C@H]4[C@@H](C2)N(C)CC[C@]314 (some centres unmarked) [hydrocodone]
Readout name: equianalgesic calculated dose
Assay value: 15.0

State the recorded equianalgesic calculated dose for this entry: CCC(=O)C(CC(C)N(C)C)(c1ccccc1)c1ccccc1 (centres unmarked)
9.0
